Data origin: the supplement of paper PMC13207355

surviving fraction listing for selected compounds.
Test system: FT3469 (normal neural stem cell line)
assay_summary: surviving fraction (nuclei count normalised to DMSO); higher = more cells surviving (less toxic)
condition_summary: 3000 nM; exposure time: 72 h
Counter-ions that a name gives are not always drawn.
Lab note: write the figure by itself, no unit.

compound | measure_name | readout_value
N=C(N)NCc1cccc(I)c1 [Iobenguane sulfate] | surviving fraction | 1.14

## Input Which surviving fraction value is on record for OCCN1C[C@H](O)[C@@H](O)[C@H](O)[C@H]1CO [Miglitol] ?
## Output 1.14

## Input Which surviving fraction value is on record for c1ccc2c(c1)[I+]c1ccccc1-2 [Diphenyleneiodonium chloride] ?
## Output 0.449

====

surviving fraction listing for selected molecules.
Test system: E21 (patient-derived glioblastoma stem cells of mesenchymal subtype)
assay_summary: surviving fraction (nuclei count normalised to DMSO); higher = more cells surviving (less toxic)
condition_summary: 333.3 nM; exposure time: 72 h
Lab note: write the figure by itself, no unit.

Please review the entries below; each comes with its answer.
molecule | readout_value
CO[C@H]1C(=O)[C@]2(C)[C@@H](OC)C[C@H]3OC[C@@]3(OC(C)=O)[C@H]2[C@H](OC(=O)c2ccccc2)[C@]2(O)C[C@H](OC(=O)[C@H](O)[C@@H](NC(=O)OC(C)(C)C)c3ccccc3)C(C)=C1C2(C)C | 0.365
C[C@]12CC[C@H](O)C[C@H]1CC[C@@H]1[C@@H]2C[C@@H](O)[C@]2(C)[C@@H](C3=CC(=O)OC3)CC[C@]12O | 0.582
COc1cc(NS(C)(=O)=O)ccc1Nc1c2ccccc2nc2ccccc12 | 0.388
Nc1ncnc2c1c(-c1ccc(Oc3ccccc3)cc1)cn2C1CCCC1 | 0.967
CC(C)(C)C1CCN(C(=O)n2ncc(C(O)(c3ccccc3)c3ccccc3)n2)CC1 | 0.973
CC(=O)CC(c1ccc([N+](=O)[O-])cc1)c1c(O)c2ccccc2oc1=O (configuration not stated) | 0.865

Here's the next entry for you.
## Input Which surviving fraction value is on record for "Cc1ccc(S(=O)(=O)/C=C/C#N)cc1" ?
## Output 0.952

====

Tested on: E13 (patient-derived glioblastoma stem cells of classical subtype)
assay_summary: surviving fraction (nuclei count normalised to DMSO); higher = more cells surviving (less toxic)
condition_summary: 1000 nM; exposure time: 72 h
Structures can show the parent of a compound that is named as a salt.
surviving fraction listing for selected compounds.
Lab note: write the figure by itself, no unit.

compound | readout_value
CC(=O)OC[C@H]1O[C@@H]([S-])[C@H](OC(C)=O)[C@@H](OC(C)=O)[C@@H]1OC(C)=O.CCP(CC)CC.[Au+] | 0.851
COc1c(N2CCNC(C)C2)c(F)cc2c(=O)c(C(=O)O)cn(C3CC3)c12 (centres undefined) | 0.806
COc1cc2nc(N3CCN(C(=O)c4ccco4)CC3)nc(N)c2cc1OC [Prazosin hydrochloride] | 1.03

## Input Which surviving fraction value is on record for "COc1cccc2c(NCc3ccccc3)nc(-n3c(N)nc4ccccc43)nc12" ?
## Output 0.147

====

Tested on: E13
assay_summary: phenotypic distance (Euclidean, principal components) from DMSO controls (arbitrary units); higher = stronger morphological change
condition_summary: 333.333 nM; exposure time: 72 h
measure_name: phenotypic distance
Lab note: write the figure by itself, no unit.

Please review the entries below; each comes with its answer.
compound | assayed_target | readout_value
CC(C)C[C@H](NC(=O)[C@H](Cc1ccccc1)NC(=O)c1cnccn1)B(O)O | E13 | 14.2
Cc1cc(C)c(CN2CCc3c(Cl)cc(-c4c(C)noc4C)c(Cl)c3C2=O)c(=O)[nH]1 | E13 | 2.27
O=C(O)c1ccc(-c2c[nH]c3ncc(-c4ccccc4)cc23)cc1C1CCCC1 | E13 | 1
CC(C)(C)CC(C)(C)c1ccc(OCCOCC[N+](C)(C)Cc2ccccc2)cc1 [Benzethonium chloride] | E13 | 0.65
COc1cc([C@@H]2c3cc4c(cc3[C@@H](O[C@@H]3O[C@@H]5CO[C@@H](C)O[C@H]5[C@H](O)[C@H]3O)[C@H]3COC(=O)[C@H]23)OCO4)cc(OC)c1O [Etoposide] | E13 | 2.88
O=[N+]([O-])c1ccc2c(c1)S(=O)(=O)C=C2 | E13 | 3.33
Cc1[nH]nc(C(F)(F)F)c1Cc1sc2c(c1C(=O)N1C[C@](C)(O)CO1)c(=O)n(C)c(=O)n2C(C)C | E13 | 1.44

## Input Item: "Nc1ncn([C@@H]2O[C@H](CO)[C@@H](O)[C@H]2O)c(=O)n1" Test system: E13 Read-out: phenotypic distance Value: ?
## Output 1.47

====

Tested on: E13
assay_summary: phenotypic distance (Euclidean, principal components) from DMSO controls (arbitrary units); higher = stronger morphological change
condition_summary: 111.1 nM; exposure time: 72 h
Where a name gives a salt, the structure may show the parent alone.
measure_name: phenotypic distance
Lab note: write the figure by itself, no unit.

molecule | phenotypic distance
COc1cc2ncnc(Nc3cccc(Br)c3)c2cc1OC | 4.7

## Input Which phenotypic distance value is on record for "COc1cccc2c1C(=O)c1c(O)c3c(c(O)c1C2=O)C[C@@](O)(C(=O)CO)C[C@@H]3O[C@H]1C[C@H](N)[C@H](O[C@@H]2CCCCO2)[C@H](C)O1" ?
## Output 5.27

## Input Which phenotypic distance value is on record for "C=CC(=O)Nc1cccc(Oc2nc(Nc3ccc(N4CCN(C)CC4)cc3)nc3ccsc23)c1" ?
## Output 1.1

## Input Which phenotypic distance value is on record for CC[C@H]1CN2CCc3cc(OC)c(OC)cc3[C@@H]2C[C@@H]1C[C@H]1NCCc2cc(OC)c(OC)cc21 [Emetine dihydrochloride hydrate] ?
## Output 4.48

## Input Which phenotypic distance value is on record for "Nc1nc(=O)c2nc(CNc3ccc(C(=O)N[C@@H](CCC(=O)O)C(=O)O)cc3)cnc2[nH]1" ?
## Output 0.396

## Input Which phenotypic distance value is on record for Cc1ncc(CO)c(CO)c1O [Pyridoxine hydrochloride] ?
## Output 0.757

## Input Which phenotypic distance value is on record for "C[C@]12CC[C@H](O)C[C@H]1CC[C@@H]1[C@@H]2C[C@@H](O)[C@]2(C)[C@@H](C3=CC(=O)OC3)CC[C@]12O" ?
## Output 0.911

====

Test system: E13
assay_summary: phenotypic distance (Euclidean, principal components) from DMSO controls (arbitrary units); higher = stronger morphological change
condition_summary: 37 nM; exposure time: 72 h
Structures can show the parent of a compound that is named as a salt.
measure_name: phenotypic distance
Lab note: write the figure by itself, no unit.

Please review the entries below; each comes with its answer.
compound | readout_value
CNCCc1ccccn1 [Betahistine mesylate] | 1.14
C[C@@H](Oc1cc(-c2cnn(C3CCNCC3)c2)cnc1N)c1c(Cl)ccc(F)c1Cl | 0.936
CC(=O)OC[C@H]1O[C@@H]([S-])[C@H](OC(C)=O)[C@@H](OC(C)=O)[C@@H]1OC(C)=O.CCP(CC)CC.[Au+] | 0.381
CC[n+]1c(/C=C/C=C2/N(C)c3ccccc3C2(C)C)sc2ccccc21 | 2.78

## Input Which phenotypic distance value is on record for C=C[C@H]1CN2CC[C@H]1C[C@@H]2[C@@H](O)c1ccnc2ccc(OC)cc12 [Quinidine hydrochloride monohydrate] ?
## Output 0.288

## Input Which phenotypic distance value is on record for "CN1C(=O)[C@@]23C[C@]4([C@]56C[C@@]78SS[C@@](CO)(C(=O)N7[C@H]5Nc5ccccc56)N(C)C8=O)c5ccccc5N[C@@H]4N2C(=O)[C@]1(CO)SS3" ?
## Output 5.87

## Input Which phenotypic distance value is on record for COc1cccc2c1C(=O)c1c(O)c3c(c(O)c1C2=O)C[C@@](O)(C(=O)CO)C[C@@H]3O[C@H]1C[C@H](N)[C@H](O)[C@H](C)O1 [Doxorubicin hydrochloride] ?
## Output 5.4

## Input Which phenotypic distance value is on record for "NCCCP(=O)(O)O" ?
## Output 1.1

## Input Which phenotypic distance value is on record for "Cc1nc2ccccn2c(=O)c1CCN1CCC(C(=O)c2ccc(F)cc2)CC1" ?
## Output 0.709

## Input Which phenotypic distance value is on record for CC1CNc2c(cccc2S(=O)(=O)N[C@@H](CCCNC(=N)N)C(=O)N2CC[C@@H](C)C[C@@H]2C(=O)O)C1 (stereo partly specified) ?
## Output 0.706

## Input Which phenotypic distance value is on record for "C[C@H](Cc1cc2c(c(C(N)=O)c1)N(CCCO)CC2)NCCOc1ccccc1OCC(F)(F)F" ?
## Output 0.863

## Input Which phenotypic distance value is on record for "O=C(Oc1cccc2cccnc12)c1ccccc1" ?
## Output 0.78

## Input Which phenotypic distance value is on record for CC(C)NCC(O)c1cc(O)cc(O)c1 (stereo unspecified) [Metaproterenol sulfate, orciprenaline sulfate] ?
## Output 0.581
